Hello, the source for this data is the supplement of paper PMC8612539, in case you need it.

I'd be grateful if you could share measured minimum inhibitory concentration for these entries.
Tested on: Escherichia coli
Test: minimum inhibitory concentration (MIC)
Conditions: isolate (source animal id): 128

Solved entries:
>>> result("CO/N=C(\\C(=O)N[C@@H]1C(=O)N2C(C(=O)O)=C(CSC(=O)c3ccco3)CS[C@H]12)c1csc(N)n1")
"8 µg/mL"
>>> result("NC[C@@H]1O[C@H](O[C@H]2[C@@H](O)[C@H](O[C@@H]3[C@@H](O)[C@H](N)C[C@H](N)[C@H]3O[C@H]3O[C@H](CN)[C@@H](O)[C@H](O)[C@H]3N)O[C@@H]2CO)[C@H](N)[C@@H](O)[C@@H]1O")
"≤ 4 µg/mL"
>>> result("CN(C)[C@@H]1C(O)=C(C(N)=O)C(=O)[C@@]2(O)C(O)=C3C(=O)c4c(O)cccc4[C@@](C)(O)[C@H]3C[C@@H]12")
"> 8 µg/mL"
>>> result("CC[C@H]1OC(=O)C[C@@H](O)[C@H](C)[C@@H](O[C@@H]2O[C@H](C)[C@@H](O)[C@H](N(C)C)[C@H]2O)[C@@H](CCN2C[C@H](C)C[C@H](C)C2)C[C@@H](C)C(=O)/C=C/C(C)=C/[C@@H]1CO[C@@H]1O[C@H](C)[C@@H](O)[C@@H](OC)[C@H]1OC")
"> 16 µg/mL"

Here is another compound to look at.
Prompt: Quick one: minimum inhibitory concentration for CCCNC[C@]1(O)[C@H](C)O[C@@H](O[C@H]2[C@H](C)[C@@H](O[C@@H]3O[C@H](C)C[C@H](N(C)C)[C@H]3O)[C@](C)(O)C[C@@H](C)CN[C@H](C)[C@@H](O)[C@](C)(O)[C@@H](CC)OC(=O)[C@@H]2C)C[C@@]1(C)OC ?
Completion: ≤ 8 µg/mL

* * *

I'd be grateful if you could share measured minimum inhibitory concentration for these entries.
Test system: Histophilus somni
Assay: minimum inhibitory concentration (MIC)
Settings: isolate (source animal id): 20

Solved entries:
>>> result("COc1cc(NS(=O)(=O)c2ccc(N)cc2)nc(OC)n1")
"≤ 256 µg/mL"
>>> result("CCN1CCN(c2cc3c(cc2F)c(=O)c(C(=O)O)cn3C2CC2)CC1")
"≤ 0.12 µg/mL"
>>> result("CN(C)[C@@H]1C(O)=C(C(N)=O)C(=O)[C@@]2(O)C(O)=C3C(=O)c4c(O)cccc4[C@@](C)(O)[C@H]3C[C@@H]12")
"4 µg/mL"

Please state minimum inhibitory concentration for every compound in the list that follows.
1. CC1(C)S[C@@H]2[C@H](NC(=O)Cc3ccccc3)C(=O)N2[C@H]1C(=O)O
2. CC[C@H]1OC(=O)C[C@@H](O)[C@H](C)[C@@H](O[C@@H]2O[C@H](C)[C@@H](O)[C@H](N(C)C)[C@H]2O)[C@@H](CCN2CCCCC2)C[C@@H](C)C(=O)/C=C/C(C)=C/[C@@H]1CN1CCCCC1

Completion:
1: ≤ 0.12 µg/mL; 2: ≤ 1 µg/mL

* * *

Test system: Mannheimia haemolytica
Assay: minimum inhibitory concentration (MIC)
Conditions: isolate (source animal id): 170
Property: minimum inhibitory concentration

Solved entries:
>>> result("CCN1CCN(c2cc3c(cc2F)c(=O)c(C(=O)O)cn3C2CC2)CC1 [Enrofloxacin]")
"≤ 0.12 µg/mL"
>>> result("C=C[C@]1(C)C[C@@H](OC(=O)CSCCN(CC)CC)[C@]2(C)[C@H](C)CC[C@]3(CCC(=O)[C@H]32)[C@@H](C)[C@@H]1O [Tiamulin]")
"> 32 µg/mL"

Please state minimum inhibitory concentration for every compound in the list that follows.
1. CNC(C)C1CCC(N)C(OC2C(N)CC(N)C(OC3OCC(C)(O)C(NC)C3O)C2O)O1 (stereo unspecified) [Gentamicin]
2. CO/N=C(\C(=O)N[C@@H]1C(=O)N2C(C(=O)O)=C(CSC(=O)c3ccco3)CS[C@H]12)c1csc(N)n1 [Ceftiofur]
3. CN[C@@H]1[C@H](O)[C@H](NC)[C@H]2O[C@@]3(O)C(=O)C[C@@H](C)O[C@H]3O[C@@H]2[C@H]1O [Spectinomycin]
4. NC[C@@H]1O[C@H](O[C@H]2[C@@H](O)[C@H](O[C@@H]3[C@@H](O)[C@H](N)C[C@H](N)[C@H]3O[C@H]3O[C@H](CN)[C@@H](O)[C@H](O)[C@H]3N)O[C@@H]2CO)[C@H](N)[C@@H](O)[C@@H]1O [Neomycin]

Completion:
1: 4 µg/mL; 2: ≤ 0.25 µg/mL; 3: 32 µg/mL; 4: > 32 µg/mL
